Biological target: T1, Chryseobacterium sp-62563 deamidase polypeptide (second polypeptide, deamidase domain), wildtype (Chryseobacterium sp-62563)
T1 sequence: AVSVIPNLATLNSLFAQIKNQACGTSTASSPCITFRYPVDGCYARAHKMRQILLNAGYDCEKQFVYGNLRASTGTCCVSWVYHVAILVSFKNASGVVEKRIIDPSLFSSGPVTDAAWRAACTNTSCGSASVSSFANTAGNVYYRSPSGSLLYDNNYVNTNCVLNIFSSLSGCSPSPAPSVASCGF
Assay: cell-based or functional assay
Quantity: Relative activity of maturated deamidase (% initial rate)
// no unit, no text: just the number

Chryseobacterium sp-62563 propeptide E67F (protein) NQDPNLVAKESNETAMKDFGKTVPVGIEKEDGKFKISFMVTAQPYEIKDSKENAAYISMIKTAVENFTPIHVFLKANTNEIAKVDKATDDDIRYFKSVFTKEVKEENRK :: 46

Attention now shifts to the item below.
Requested field: Relative activity of maturated deamidase (% initial rate). Item: Chryseobacterium sp-62563 propeptide D91H (protein) NQDPNLVAKESNETAMKDFGKTVPVGIEKEDGKFKISFMVTAQPYEIKDSKENAAYISMIKTAVENETPIHVFLKANTNEIAKVDKATDDHIRYFKSVFTKEVKEENRK
64
